Origin of measurements: patent US20220202012A1

Tested on: storage potatoes
experiment.description: Field trial: sprout suppression in storage potatoes, composition applied on a conveyor belt
Format: in vivo, Solanum tuberosum
recorded.conditions: Treatment (2): At end of dormancy; rate not given
observation.type: Sprouted (%)
One number for each entry, in %.

| compound | unit.abbreviation | val |
| --- | --- | --- |
| COCc1cnc(C2=NC(C)(C(C)C)C(=O)N2)c(C(=O)O)c1 (centres unmarked) [Imazamox] | % | 42.54 |
| C=C(C)C1CC=C(C)C(=O)C1 (centres unmarked) [Carvone] | % | 96.02 |
| O=C(O)COc1ccc(Cl)cc1Cl [2,4-D] | % | 99.21 |
| Cc1ccc(C)c2ccccc12 [1,4-Dimethylnaphthalene] | % | 94.59 |

Please turn your attention to the following entry.
Q: Answer with Sprouted (%) of CCCCCCC=CC(C)=O [3-Decen-2-One] measured for storage potatoes.
A: 100.0
